I'd be grateful if you could share measured growth for these entries.
# Test system: HCT-116 colon
# Test protocol: NCI-60 one-dose screen, 48 h (100 = growth as untreated, 0 = no growth, -100 = all killed)
# Measurement context: 10 µM unless noted
# Experimental: Growth inhibition of the HCT-116 human tumor cell line is measured as a screen for anti-cancer activity. Cells are grown in 96 well plates and exposed to the test compound for 48 hours. Compounds are tested at a single concentration, which is 10^-5 M for most compounds. The reported endpoint is percent growth (GI% or GIPRCNT), where numbers from 0 - 100% represent growth inhibition, and numbers from -100% - 0 represent cell death. For example, a value of 40 represents 60% growth inhibition. […]
Compounds without any hit were thinned out: in the full panel of roughly 83,000, 20% have a hit.
Numbers only, in %.

Study these solved cases before continuing.
CCc1cccc2c3c(sc12)C(c1ccc(F)cc1)C(C#N)=C(/N=C/c1ccc(Cl)cc1)O3 (stereo not drawn)
11.4
COc1ccc(C(C)=C(c2ccc(OCCN3CCCCCC3)cc2)c2ccc(OCCN3CCCCCC3)cc2)cc1
-93
CCCCCCNC(=O)Oc1ccc(/C(=C(/C)c2ccc(Cl)cc2)c2ccc(OCCN3CCCCCC3)cc2)cc1
30.9
Cc1ccc2c(n1)C(=O)C(Cl)=C(Nc1ccc(C#N)cc1)C2=O
67.9
C=C(C)[C@@H]1CC[C@]2(COP(=O)(OCC)OCC)CC[C@]3(C)[C@H](CC[C@@H]4[C@@]5(C)CC[C@H](OP(=O)(OCC)OCC)C(C)(C)[C@@H]5CC[C@]43C)[C@@H]12
6.75

For each of the items listed, what is its growth?
1. CC1=C(C)C(=O)C(Nc2ccc(C)cc2)=C(Br)C1=O
2. O=S1SC(c2ccccc2)=NN1c1cc(F)cc(F)c1 (stereo not drawn)
3. CCOP(=O)(OCC)OC[C@]12CC[C@@H](C)[C@H](C)C1C1=CC[C@@H]3[C@@]4(C)CCCNC(C)(C)[C@@H]4CC[C@@]3(C)[C@]1(C)CC2 (stereo partly drawn)
4. CC(C)(C)c1cc(NC(=O)Nc2ccc(-c3cn4c5c(sc4n3)CCc3c[nH]cc3-5)cc2)no1
5. Clc1ccc(CSc2nnc(-c3ccc(Cl)cc3)n2-c2ccccc2)cc1
6. CN(C)c1cccc2c(S(=O)(=O)Nc3cccc(-c4csc(NC(=O)CCCCCN5CCN(CCO)CC5)n4)c3)cccc12

1. 35.4
2. 16.5
3. -84.5
4. 23.2
5. 75.3
6. 36.2

====

Exercise: state measured growth for each of the molecules provided.
# Test system: HOP-92 NSCLC
# Test protocol: NCI-60 one-dose screen, 48 h (100 = growth as untreated, 0 = no growth, -100 = all killed)
# Measurement context: 10 µM unless noted
Compounds without any hit were thinned out: in the full panel of roughly 83,000, 20% have a hit.
Numbers only, in %.

Example molecules with recorded growth:
CC1=C(C)C(=O)C(Nc2ccc3c(c2)OCO3)=C(Br)C1=O
-22.9
O=S1SC(c2ccccc2)=NN1c1cc(F)cc(F)c1 (stereo unspecified)
-25.2
CC(=O)/C(N=Nc1ccc2oc(=O)ccc2c1)=C(\C)O
2.61
COc1ccc(NC2=C(Br)C(=O)C(C)=C(C)C2=O)cc1OC
-60.8
C#Cc1nc(/C=C\CCCCCCC(=O)NO)cs1
-75.3

Here is the next item to consider.
Identify measured growth obtained with HOP-92 NSCLC for COc1cc(C(=O)c2cc(C(C)=O)c3c(C)cccn23)cc(OC)c1OC .
110

====

# Test system: RPMI-8226 leukemia
# Test protocol: NCI-60 one-dose screen, 48 h
# Measurement context: 10 µM unless noted
Compounds without any hit were thinned out: in the full panel of roughly 83,000, 20% have a hit. Active and inactive are the calls of the source. Rule for the calls: active = growth percent below 10; inactive = the rest.
API: response.call in active, inactive

Previously resolved entries follow.
CN1CCN(Cc2ccc(NC(=O)c3cncc(C#Cc4cnc5ccc(N)nn45)c3)cc2C(F)(F)F)CC1
inactive
C#Cc1nc(/C=C/CCCCCCC(=O)NO)cs1
active
CCCc1cc2cc(-n3nc(CC)c4c3CC(C)(C)CC4=O)cc(NC3CCC(O)CC3)c2c(=O)[nH]1 (stereo not given)
inactive
CN1CCN(Cc2ccc(NC(=O)c3cncc(C#Cc4cnc5ccc(OC6CCOCC6)nn45)c3)cc2C(F)(F)F)CC1
active

Returns: the outcome recorded for CCOC(=O)c1ccc(NC2=CC(=O)C(C)=C(C)C2=O)cc1 in this assay.
inactive

====

Answer each item with its documented growth.
# Test system: OVCAR-5 ovarian
# Test protocol: NCI-60 one-dose screen, 48 h (100 = growth as untreated, 0 = no growth, -100 = all killed)
# Measurement context: 10 µM unless noted
Compounds without any hit were thinned out: in the full panel of roughly 83,000, 20% have a hit. Activity calls are given as the source filed them. The calls were made as follows: active = growth percent below 10; inactive = the rest.

Completed entries (count: 4):
O=C(CSc1nnc(-c2cccs2)n1-c1ccccc1)Nc1ccccc1
96.7% (inactive)
O=C(CCCCCCN1CC(=O)N2[C@@H](c3cccs3)c3[nH]c4ccccc4c3C[C@H]2C1=O)NO
70.4% (inactive)
CC1=C(SCC(=O)OCCCCCC(C)C)C(=O)c2ccccc2C1=O
113% (inactive)
COc1cc2oc(-c3cccc(NC(=O)c4cccc([N+](=O)[O-])c4)c3)cc(=O)c2c(OC)c1OC
72.1% (inactive)

Each compound below has a reported value. Please supply its growth.
1. Brc1ccc(-c2cc(-c3ccc4c(c3)OCCO4)n[nH]2)s1
2. Nn1c(=O)n(-c2cccc(C(F)(F)F)c2)c(=O)c2cc(-c3ccc(F)cc3F)ccc21

1. 58.1% (inactive)
2. 47.2% (inactive)

====

# Test system: TK-10 renal
# Test protocol: NCI-60 one-dose screen, 48 h
# Measurement context: 10 µM unless noted
This is part of a sample that, as a whole, favours compounds with a hit. Of some 83,000 tested, about 20% had one in any assay. Active and inactive are the calls of the source. The calls were made as follows: active = growth percent below 10; inactive = the rest.
A correct response names exactly one class from active, inactive

Field: example entries. Status: answers known.
Cc1ccc(C(=O)Nc2ccc(CNCCN3CCNCC3)c(C(F)(F)F)c2)cc1C#Cc1cnc2cccnn12
inactive
Cc1[nH]c(C(=O)Nc2ccc(S(=O)(=O)N3CCCCC3)cc2OCCOCCOCCOCCOCCOCCOCCOCCOCCOc2cc(S(=O)(=O)N3CCCCC3)ccc2NC(=O)c2[nH]c(C)c3c2CCCCC3=O)c2c1C(=O)CCCC2
active
C=C(C)[C@@H]1CC[C@]2(C(=O)NC3CCCCC3)CC[C@]3(C)[C@H](CC[C@@H]4[C@@]5(C)CC[C@H](N)C(C)(C)[C@@H]5CC[C@]43C)[C@@H]12
inactive
O=C(CCCCCCNC(=O)C(O)(O)C(F)(F)F)Nc1ncc(-c2ccc(Br)cc2)s1
active
C#C[C@]1(O)CC[C@H]2[C@@H]3CC=C4c5sc(Nc6cc(C)cc(C)c6)nc5CC[C@]4(C)[C@H]3CC[C@@]21C
inactive

Look up the recorded call for CN(C)c1ccc(/C=N/Nc2nc(N/N=C/c3ccc(N(C)C)cc3)nc(N3CCCCC3)n2)cc1 in this test.
inactive

Given CSc1ccc(C(=NNS(=O)(=O)c2ccc(C)cc2)c2ccc(Cl)cc2)cc1 , state the outcome it received in this test.
inactive

====

# System: EKVX NSCLC
# Test protocol: NCI-60 one-dose screen, 48 h
# Measurement context: 10 µM unless noted
Compounds without any hit were thinned out: in the full panel of roughly 83,000, 20% have a hit. Calls of active or inactive are those of the source. Rule for the calls: active = growth percent below 10; inactive = the rest.
Your response should consist of one outcome taken from active, inactive

Below are worked cases with known answers.
CN(C)c1ccc(/C=N/Nc2nc(N/N=C/c3ccc(N(C)C)cc3)nc(N3CCCCC3)n2)cc1
inactive
O=C(CN1CCN(c2cc(=O)[nH]c3ccc(F)cc23)CC1)N(c1ccccc1)c1ccccc1
inactive
NS(=O)(=O)c1cccc(Nc2nc(SCC(=O)c3ccc(Cl)cc3)nc3c2CCC3)c1
inactive
c1ccc(-c2cn3c(-c4c[nH]c5ccccc45)csc3n2)cc1
inactive

Now look at this entry.
Please let me know the test result on file for CNCCN(C)c1ccc(Nc2cc(NC3CC3)n3ncc(C#N)c3n2)cc1NC(C)=O .
active

====

# Tested on: LOX IMVI melanoma
# Test protocol: NCI-60 one-dose screen, 48 h
# Measurement context: 10 µM unless noted
Compounds without any hit were thinned out: in the full panel of roughly 83,000, 20% have a hit. Calls of active or inactive are those of the source. The calls were made as follows: active = growth percent below 10; inactive = the rest.
Return exactly one item of TRUE = active, FALSE = inactive

O=C(CCCCCC/C=C\c1csc(Br)n1)NO
FALSE

Query: recorded result category for COc1ccc([C@@H]2C(=O)N(c3cc(OC)c(OC)c(OC)c3)[C@H]2c2ccc(OC)c(O)c2)cc1 in this test
FALSE

Which outcome was assigned to Cc1ccc(-c2csc(N/N=C/c3cccs3)n2)cc1 in this test?
FALSE

Record request — test call for O=C1CSC(c2cn(-c3ccccc3)nc2-c2ccc(Cl)cc2)N1c1ccccc1 (stereo not given)
FALSE

What did this assay record as the result for C#Cc1cc(OC)c(C(=O)Nc2ccc(F)cc2C(=O)Nc2cccc(S(=O)(=O)C(F)(F)F)c2)cn1 ?
TRUE

For O=C(NCCNc1cc(-c2cn(-c3ccccc3)nc2-c2cccc(O)c2)ccn1)Nc1cc(C(F)(F)F)cc(C(F)(F)F)c1 , which call appears in the assay record?
FALSE

Hi team, can someone confirm the assay call for O=c1c2cc(-c3ccc(F)cc3F)ccc2n(Nc2ccccc2)c(=O)n1-c1cccc(C(F)(F)F)c1 ?
TRUE

// outcome(item) with item = Cc1ccc(N2CCN(C3=C(Cl)C(=O)c4ncccc4C3=O)CC2)cc1
TRUE

// outcome(item) with item = COc1ccc(C2c3[nH]c4ccc(Cl)cc4c3CCN2c2oc(CO)nc2C#N)cc1 (stereo not given)
FALSE
